Data provenance: BindingDB's records for patent US20240116873

# target under test: Solute carrier family 22 member 11 (Homo sapiens, UniProt Q9NSA0)
# Sequence (Q9NSA0 whole entry): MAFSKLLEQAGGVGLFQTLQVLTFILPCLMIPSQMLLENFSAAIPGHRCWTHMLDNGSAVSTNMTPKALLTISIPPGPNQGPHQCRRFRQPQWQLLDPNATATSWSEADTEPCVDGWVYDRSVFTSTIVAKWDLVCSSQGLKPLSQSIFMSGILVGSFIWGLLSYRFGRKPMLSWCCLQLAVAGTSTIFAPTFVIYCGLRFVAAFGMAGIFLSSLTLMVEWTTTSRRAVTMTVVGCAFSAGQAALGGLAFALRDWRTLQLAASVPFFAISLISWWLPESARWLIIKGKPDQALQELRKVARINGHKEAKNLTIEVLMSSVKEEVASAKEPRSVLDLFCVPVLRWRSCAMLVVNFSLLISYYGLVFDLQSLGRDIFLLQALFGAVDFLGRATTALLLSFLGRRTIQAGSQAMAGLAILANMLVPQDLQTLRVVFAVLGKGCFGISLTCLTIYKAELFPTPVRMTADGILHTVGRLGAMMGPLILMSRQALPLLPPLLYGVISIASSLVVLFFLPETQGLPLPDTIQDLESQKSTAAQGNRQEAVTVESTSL
readout: IC50 (µM)
Answer in µM, number only, no unit symbol.

Indicate its recorded IC50; the molecule in question is CC(C)(Sc1ccnc2ccc(C(F)(F)F)cc12)C(=O)NS(C)(=O)=O 83.8

###

# target under test: Solute carrier family 22 member 12 (Homo sapiens)
# Sequence (Q96S37 whole entry): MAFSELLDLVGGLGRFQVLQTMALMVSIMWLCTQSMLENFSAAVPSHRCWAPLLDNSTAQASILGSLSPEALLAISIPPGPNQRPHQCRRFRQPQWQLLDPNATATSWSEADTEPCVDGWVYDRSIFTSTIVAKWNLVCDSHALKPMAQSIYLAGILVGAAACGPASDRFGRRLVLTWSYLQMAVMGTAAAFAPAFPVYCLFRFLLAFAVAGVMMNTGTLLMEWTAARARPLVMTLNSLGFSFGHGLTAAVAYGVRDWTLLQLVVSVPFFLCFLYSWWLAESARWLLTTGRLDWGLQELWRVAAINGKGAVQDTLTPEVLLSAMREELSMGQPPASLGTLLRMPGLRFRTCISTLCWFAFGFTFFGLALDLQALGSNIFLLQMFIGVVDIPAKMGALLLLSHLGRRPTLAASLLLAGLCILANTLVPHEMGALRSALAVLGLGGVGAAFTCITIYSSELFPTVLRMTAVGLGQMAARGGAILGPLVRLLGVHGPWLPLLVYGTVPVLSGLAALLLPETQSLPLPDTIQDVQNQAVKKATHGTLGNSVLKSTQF
readout: IC50 (nM)
Express the result in nM but write the number alone.

GET IC50 | system: Solute carrier family 22 member 12 (Homo sapiens) | item: CCS(=O)(=O)NC(=O)C(C)(C)Sc1ccnc2ccc(Br)cc12 1180

GET IC50 | system: Solute carrier family 22 member 12 (Homo sapiens) | item: Cc1ccc2nccc(SC(C)(C)C(=O)NS(C)(=O)=O)c2c1 3150
